# TARGET OR SYSTEM: T1, human Protein S (human, UniProt P07225 42-676)
# T1 construct: also called ProS; ProS1
# T1 sequence: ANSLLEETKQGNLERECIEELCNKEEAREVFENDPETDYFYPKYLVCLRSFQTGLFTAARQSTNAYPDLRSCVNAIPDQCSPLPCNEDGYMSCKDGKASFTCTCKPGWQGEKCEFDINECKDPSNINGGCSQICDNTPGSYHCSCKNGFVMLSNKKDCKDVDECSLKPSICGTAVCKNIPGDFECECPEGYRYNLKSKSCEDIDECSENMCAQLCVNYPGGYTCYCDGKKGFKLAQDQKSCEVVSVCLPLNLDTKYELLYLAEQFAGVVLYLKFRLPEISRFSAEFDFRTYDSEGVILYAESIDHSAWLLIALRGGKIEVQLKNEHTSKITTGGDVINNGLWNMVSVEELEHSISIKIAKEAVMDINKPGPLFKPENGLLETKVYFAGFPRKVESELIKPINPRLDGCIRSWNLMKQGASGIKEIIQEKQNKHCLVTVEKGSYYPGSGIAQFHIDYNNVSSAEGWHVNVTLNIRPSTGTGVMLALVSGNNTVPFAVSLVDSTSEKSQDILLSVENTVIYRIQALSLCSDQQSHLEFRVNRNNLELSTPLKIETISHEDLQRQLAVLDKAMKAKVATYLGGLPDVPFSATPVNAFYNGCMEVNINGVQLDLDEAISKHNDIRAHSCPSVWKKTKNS
# METHOD DESCRIPTION: ELISA; plate coated with human Protein S; 1 µg/ml antibody; 1 mM EDTA
QUANTITY MEASURED: Binding to Protein S in EDTA (OD)
Give the quantity in OD, number only.

Below are worked cases with known answers.
Antibody 13 (antibody, V domains shown, Human variable region with rat Fc) VH: QVQLVQSGAEVKKPGSSVKVSCKVSGGTFSSYSISWVRQAPGQGLEWMGGIIPIFGTTNYAQKFQGRVTITADESTSTAYMDLSSLKSEDTAMYYCEGGRVGADFDYWGQGTLVTVSS VL: SSDLTQGPAVSVALGQTVRITCQGDSLRNYYASWYQQKPGQAPVPVIYGKNDRPSGIPDRFSGSISGNTASLTITGAQAEDEAHYYCNSRDSSGNHVVFGGGTKLTVL	0.48
Antibody 42 (antibody, V domains shown, Human variable region with rat Fc) VH: QVQLVQSGSEVKKPGASVKVSCKASGYTFTNYYIHWVRQAPGQGLEWMGIITPSGGTTSYAQKFQGRVTMTRDTSTNTVYMGLSSLRSEDTAMYYCARAGVQLDRRGWFDPWGQGTLVTVSS VL: SYELTQPPSVSVSPGQTASITCSGDKLGDKYVFWYQQKPGQSPVLVIYQDSKRPSGIPERFSGSNSGNTATLTISGTQTMDEADYYCQAWDSSTVGFGGGTKLAVL	0.53
Antibody 40 (antibody, V domains shown, Human variable region with rat Fc) VH: EVQLVESGGGLVQPGGSLRLSCAASGFTFSSYSMNWVRQAPGKGLEWVAYISSSTRTIFYADSVKGRFTISRDNAKNSLYLQMNSLRDEDTAFYYCARERSAFDYWGQGTLVTVSS VL: SYVLTQPPSVSVAPGQTARITCGGDNIGGKSVHWYQQKPGQAPVMVVYDDSDRPSGIPERFAGSNSGNTATLAISRVEAGDEADYYCQVWEITSDHPAFGGGTRLTVL	0.11

Summary for this binder, Antibody 23 (antibody, V domains shown, Human variable region with rat Fc) VH: QVQLVQSGAEVKKPGASVKVSCKSSGHTFTGYYMHWVRQAPGQGLEWMGWINPNSGDTNYAQKFQGRVTMTRDTSISTAYMEMSRLRSDDTAVYYCARDSQILWFGELGYWGQGTLVTVSS VL: QAVVTQESALTTSPGETVTLTCRSSTGAVTASNYANWVQEKPDHLFTGLIGSTNNRAPGVPARFSGSLIGDKAALTITGAQTEDEAIYFCALWYSDHFVFGGGTKLTVL : Binding to Protein S in EDTA (OD) is 0.26

Summary for this binder, Antibody 33 (antibody, V domains shown, Human variable region with rat Fc) VH: QVQLQQSGPGLVKPSQTLSLTCAISGDSVSNNNAAWNWIRQSPSRGLEWLGGTYYRSKWYNDYAVSVKSRIIINPVTSKNQFSLQLNSVTPEDTAVYYCARGSSWYRFFDYWGQGTLVTVSS VL: EIVLTQSPGTLSLSPGERATLSCRASQSVGSSYLAWYQQKPGQAPRLLISGASGRATGIPDRFSGSGSGTDFTLTISRLEPEDFTVYYCQQYGSSPYTFGQGTKLEIK : Binding to Protein S in EDTA (OD) is 0.2
